test method notes: Volume of distribution in CD Sprague-Dawley rat at 1.0 mg/kg, iv
Format: ADME, organism-based
Design: dose 1 mg/kg, route intravenous
measurement parameters: in vivo
measured quantity: Vd (L/kg)

smiles str	measured quantity	result number
C[C@@H]1CCCN1CCCOc1ccc(N2CCN(C(=O)c3ccc(C#N)cc3)CC2=O)cc1.O=CO	Vd	2.1
O=C(c1ccc(F)cc1)N1CCN(c2ccc(OCCCN3CCCCC3)cc2)C(=O)C1.O=CO	Vd	2.4
Cl.O=C(c1ccc(F)cc1)N1CCN(c2ccc(OC3CCN(C4CCC4)CC3)cc2)C(=O)C1	Vd	2.5
N#Cc1ccc(C(=O)N2CCN(c3ccc(OC4CCN(C5CCC5)CC4)cc3)C(=O)C2)cc1.O=CO	Vd	2.2
O=C(c1ccc(F)cc1)N1CCN(c2ccc(OCCCN3CCCC3)cc2)C(=O)C1.O=CO	Vd	2
C[C@@H]1CCCN1CCCOc1ccc(N2CCN(C(=O)c3ccc(F)cc3F)CC2=O)cc1.O=CO	Vd	2

====

test method notes: Partition coefficient, log D at pH 7.4
Format: physicochemical
measurement parameters: octanol/water
measured quantity: logD

// worked examples, logD included
smiles str	logD
C[C@@H]1CCCN1CCCOc1ccc(N2CCN(C(=O)c3ccc(F)cc3F)CC2=O)cc1.O=CO	-0.08
O=C(c1cc(F)cc(F)c1)N1CCN(c2ccc(OC3CCN(C4CCCC4)CC3)cc2)C(=O)C1	1.03
O=C(c1ccccc1)N1CCN(c2ccc(OC3CCN(C4CCC4)CC3)cc2)C(=O)C1	0.73
N#Cc1ccc(C(=O)N2CCN(c3ccc(OCCCN4CCCC4)cc3)C(=O)C2)cc1	-1.07
C[C@@H]1CCCN1CCCOc1ccc(N2CCN(C(=O)c3ccc(C#N)cc3)CC2=O)cc1.O=CO	-0.59
O=C(c1ccc(F)cc1)N1CCN(c2ccc(OC3CCN(C4CCCC4)CC3)cc2)C(=O)C1	0.88
CS(=O)(=O)c1ccc(C(=O)N2CCN(c3ccc(OC4CCN(C5CCCC5)CC4)cc3)C(=O)C2)cc1	-0.46

(A) N#Cc1ccc(C(=O)N2CCN(c3ccc(OCCCN4CCCCCC4)cc3)C(=O)C2)cc1
(B) Cc1ccc(C(=O)N2CCN(c3ccc(OC4CCN(C5CCC5)CC4)cc3)C(=O)C2)cc1
Data request: Quick one: lower logD, A or B ? # answer = label of selected item
Data returned: A
(A: -0.39, B: 1.3)

====

test method notes: AUC in Beagle dog at 2.0 mg/kg, po
Assay type: ADME, organism-based, Canis lupus familiaris
Set-up: dose 2 mg/kg, route oral
measurement parameters: plasma
measured quantity: AUC (ng·h/mL)

(a) O=C(c1ccc(F)cc1)N1CCN(c2ccc(OCCCN3CCCCC3)cc2)C(=O)C1.O=CO
(b) N#Cc1ccc(C(=O)N2CCN(c3ccc(OC4CCN(C5CCC5)CC4)cc3)C(=O)C2)cc1.O=CO
Data request: Could you tell me which of a and b has the lower AUC reading? Kindly give the label for the entry you pick.
Data returned: b
(b: 1540 ng·h/mL, a: 3090 ng·h/mL)

====

test method notes: Partition coefficient, log D at pH 7.4
Type: physicochemical
measurement parameters: octanol/water
measured quantity: logD

# annotated cases, reported logD shown
smiles str	logD
O=C(c1ccc(F)cc1F)N1CCN(c2ccc(OC3CCN(C4CCCC4)CC3)cc2)C(=O)C1	0.96
CS(=O)(=O)c1cccc(C(=O)N2CCN(c3ccc(OC4CCN(C5CCCC5)CC4)cc3)C(=O)C2)c1	-0.41

(P) CC(C)N1CCC(Oc2ccc(N3CCN(C(=O)c4ccc(C#N)cc4)CC3=O)cc2)CC1
(Q) CC(C)N1CCC(Oc2ccc(N3CCN(C(=O)c4cc(F)cc(F)c4)CC3=O)cc2)CC1
Data request: // which entry reports the smaller logD, P or Q ? API: response body contains the label of the selected item.
Data returned: P

====

test method notes: Partition coefficient, log D at pH 7.4
Type: physicochemical
measurement parameters: octanol/water
measured quantity: logD

smiles str	logD
CS(=O)(=O)c1ccc(C(=O)N2CCN(c3ccc(OCCCN4CCCCC4)cc3)C(=O)C2)cc1	-1.19

(A) O=C(c1ccc(F)cc1F)N1CCN(c2ccc(OC3CCN(C4CCC4)CC3)cc2)C(=O)C1
(B) O=C(c1cnn2cccnc12)N1CCN(c2ccc(OCCCN3CCCCC3)cc2)C(=O)C1
Data request: Sort A and B by logD descending and give the first. Select an item and report its label.
Data returned: A
(A: 0.95, B: -1.1)

====

test method notes: Partition coefficient, log D at pH 7.4
Type: physicochemical
measurement parameters: octanol/water
measured quantity: logD

smiles str	logD
O=C(c1ccncc1)N1CCN(c2ccc(OCCCN3CCCCC3)cc2)C(=O)C1	-1.6
O=C(c1cc(F)cc(F)c1)N1CCN(c2ccc(OCCCN3CCCC3)cc2)C(=O)C1	-0.38

(I) O=C(c1ccc(Cl)cc1)N1CCN(c2ccc(OC3CCN(C4CCCC4)CC3)cc2)C(=O)C1
(II) Cl.O=C(c1ccc(F)cc1)N1CCN(c2ccc(OC3CCN(C4CCC4)CC3)cc2)C(=O)C1
Data request: Kindly identify which of I and II has the larger recorded logD value. Your answer should be the label of the entry you select.
Data returned: I
(I: 1.52, II: 0.9)

====

test method notes: Partition coefficient, log D at pH 7.4
Format: physicochemical
measurement parameters: octanol/water
measured quantity: logD

Reference set, count: 3
smiles str	result number
O=C(c1ccc(F)cc1F)N1CCN(c2ccc(OCCCN3CCCCC3)cc2)C(=O)C1	0.1
C[C@H]1CCCN1CCCOc1ccc(N2CCN(C(=O)c3ccc(F)cc3F)CC2=O)cc1	-0.13
O=C(c1cc(F)cc(F)c1)N1CCN(c2ccc(OCCCN3CCCCCC3)cc2)C(=O)C1	0.24

(P) C[C@H]1CCCN1CCCOc1ccc(N2CCN(C(=O)c3cc(F)cc(F)c3)CC2=O)cc1
(Q) O=C(c1cc(F)cc(F)c1)N1CCN(c2ccc(OCCCN3CCCCC3)cc2)C(=O)C1
(R) O=C(c1cc(F)cc(F)c1)N1CCN(c2ccc(OC3CCN(C4CCC4)CC3)cc2)C(=O)C1
(S) C[C@@H]1CCCN1CCCOc1ccc(N2CCN(C(=O)c3ccc(F)cc3)CC2=O)cc1
(T) O=C(c1ccc(C(=O)N2CCN(c3ccc(OCCCN4CCCCC4)cc3)C(=O)C2)cc1)N1CCC1
Data request: Give the ascending ranking of the items by reported logD. Show the ranking through the labels, in the order asked for.
Data returned: T, S, P, Q, R

(I) O=C(c1ccc(F)cc1F)N1CCN(c2ccc(OCCCN3CCCCCC3)cc2)C(=O)C1
(II) C[C@H]1CCCN1CCCOc1ccc(N2CCN(C(=O)c3ccc(F)cc3)CC2=O)cc1
Data request: Parameter check: reported logD is higher for which label, I or II ? Let me know the label of the one you choose.
Data returned: I

Where these numbers come from: ChEMBL document CHEMBL1138361
